- targetOfAssay: human GCG receptor (human, UniProt P47871 26-477)
- Sequence (P47871 26-477): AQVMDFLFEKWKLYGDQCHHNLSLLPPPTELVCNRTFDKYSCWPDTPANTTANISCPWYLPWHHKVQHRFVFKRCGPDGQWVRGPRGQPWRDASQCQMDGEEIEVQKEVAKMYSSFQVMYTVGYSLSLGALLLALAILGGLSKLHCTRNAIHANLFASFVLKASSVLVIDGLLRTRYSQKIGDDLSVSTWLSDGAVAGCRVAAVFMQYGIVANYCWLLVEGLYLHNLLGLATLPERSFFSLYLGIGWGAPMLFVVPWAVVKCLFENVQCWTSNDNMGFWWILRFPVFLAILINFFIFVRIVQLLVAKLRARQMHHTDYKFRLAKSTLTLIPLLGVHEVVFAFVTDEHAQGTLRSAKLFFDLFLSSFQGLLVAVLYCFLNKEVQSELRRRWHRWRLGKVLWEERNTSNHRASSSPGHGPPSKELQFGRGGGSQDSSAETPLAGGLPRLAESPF
- measurementProtocol: cell-based or functional assay
Bridge positions count the residues as written; N and C are the ends. Square brackets hold non-standard residues; d marks the D form. Ends that are not written are not given here. * marks the point of attachment. Acetyl(2-(4-imidazolyl)) = O=C(Cc1c[nH]cn1)*; Aib = CC(C)(N)C(=O)O
quantityKind: In vitro activity compared to native peptide (%) vs Glucagon

{"binder": "Y[Aib]QGTFTSDYSKYLDEKAAKDFVQWLLDHHPSSGQPPPSC (bridge 16-20) [Triple agonist of SEQ ID NO: 77]", "observed": "12.2%"}
{"binder": "H[Aib]QGTFTSDYSKYLDEKRQKEFVNWLLAQC (bridge (positions not given here); also: ring formation between underlined amino acids, places not given here) [Triple agonist of SEQ ID NO: 56]", "observed": "4.9%"}
{"binder": "{Acetyl(2-(4-imidazolyl))}-[Aib]EGTFTSDYSIAMDEIHQKDFVNWLLAQKC (bridge 15-19) [Triple agonist of SEQ ID NO: 90]", "observed": "< 0.1%"}
{"binder": "{Acetyl(2-(4-imidazolyl))}-GQGTFTSDLSKQMDSEAQQLFIEWLKNGGPSSGAPPPSHG [Triple agonist of SEQ ID NO: 16]", "observed": "< 0.1%"}
{"binder": "{Acetyl(2-(4-imidazolyl))}-[Aib]QGTFTSDKSKYLDERAAQDFVQWLLDGGPSSGAPPPS [Triple agonist of SEQ ID NO: 62]", "observed": "< 0.1%"}
